Molecular target: T1, PACAP-R3 (human, UniProt P41587 24-438)
T1 sequence (looked up): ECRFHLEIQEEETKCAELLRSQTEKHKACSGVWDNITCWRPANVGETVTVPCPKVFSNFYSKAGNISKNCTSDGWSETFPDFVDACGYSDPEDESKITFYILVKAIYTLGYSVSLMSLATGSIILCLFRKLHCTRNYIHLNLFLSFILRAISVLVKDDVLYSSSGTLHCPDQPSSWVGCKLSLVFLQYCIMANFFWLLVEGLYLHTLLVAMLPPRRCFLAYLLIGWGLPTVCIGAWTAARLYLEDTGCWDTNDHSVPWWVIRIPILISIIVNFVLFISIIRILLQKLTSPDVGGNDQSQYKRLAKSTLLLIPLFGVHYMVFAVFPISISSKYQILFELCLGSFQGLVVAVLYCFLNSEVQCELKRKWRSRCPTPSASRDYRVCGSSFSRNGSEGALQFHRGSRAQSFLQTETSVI
Experiment: cell-based or functional assay
No end group written: not given here.

# Binder, R3 EC50, nM (cAMP SPA) [nM]
records = [
    ("HSDGIFTDSYSRYRKQMAVKKYLAAKL-NH2 [PAC26]", 0.3),
    ("HKDGIFTDSYSRYRKQMAVKKYLAAVL-NH2 [PAC2]", 34),
    ("HSDGIFTDSYSRYRKQMAVKEYLAAVL-NH2 [PAC21]", 0.24),
    ("HSDAVFTDNYTRLRKQMASKKYLNSIRNRI [rR3P193]", 1.9),
    ("HSDAVFTDDYTRLRKEVAAKKYLESIKDKRY [R3P173]", 200),
    ("HSDGIFTDSYSEYRKQMAVKKYLAAVL-NH2 [PAC12]", 3),
    ("HSDGIFTDSYSRYEKQMAVKKYLAAVL-NH2 [PAC14]", 1.6),
    ("HSDAVFTDNYTRLRKQMAKKKYLNSIQNRI [rR3P186]", 1.6),
    ("HSDAVFTDNYTRLRKQMAGKKYLNSIKNRI [rR3P175]", 2.2),
    ("HSDGIFTDSYSRYRKQMAKKKYLAAVL-NH2 [PAC19]", 0.4),
    ("HSDAVFTDNYTRLRKQMAGKKYLNSIRNRI [rR3P190]", 2.2),
    ("HSDAVFTDNYTRLRKQMAAKKYLNSIRNRI [rR3P189]", 0.04),
    ("HSDGIFTDSYSRYRKQKAVKKYLAAVL-NH2 [PAC17]", 0.15),
    ("HSDAVFTDNYTRLRKQMASKKYLNSIQNRI [rR3P188]", 2.2),
    ("HSDAVFTDNYTRLRKQMAGKKYLNSIQNRI [rR3P185]", 4.5),
    ("HSDAVFTDNYTRLRKQMAAKKYLNSIPNRI [rR3P179]", 1.5),
    ("HSDAVFTDNYTRLRKQMAAKKYLNSIKNKT [R3P168]", 0.2),
    ("HSDAVFTDNYTRLRKQMAAKKYLNSIQNRI [rR3P184]", 0.37),
    ("HSDAVFTDNYTRLRKQMARKKYLNSIRNRI [rR3P192]", 0.6),
    ("HSDAVFTDNYTRLRKQMAGKKYLNSIPNRI [rR3P180]", 6.7),
    ("HSDAVFTDNYTRLRKQMARKKYLNSIPNRI [rR3P182]", 3.2),
    ("HSDGIFTDSYSRYRKKMAVKKYLAAVL-NH2 [PAC16]", 0.2),
    ("HSDGIFTDSYSRYRKQMAVKKYLAAVK-NH2 [PAC27]", 1.1),
    ("HSDGIFTDSYSRYRKQMAVKKYLKAVL-NH2 [PAC24]", 0.2),
    ("ESDGIFTDSYSRYRKQMAVKKYLAAVL-NH2 [PAC1]", 10),
]
